Where do the numbers come from? From patent US9670214B2.

The compounds listed here are annotated with their pIC50.
STUDY_TARGET: Bcr-abl T315I (Ba/F3.p210^T315I cells) (Homo sapiens, UniProt P00519, T315I, cells depend on it)
PROTOCOL: Proliferation assay (MTT), T315I mutant Bcr-abl expressing Ba/F3 cells
CONDITION_LABEL: 48 h, drug concentrations 0.005-10 μM
Scale: pIC50 equals -log10([C]), with [C] in mol/L.

Solved cases below.
{"MOLECULE": "FC(F)(F)Oc1ccc(Nc2cc(-c3cnn(Cc4ccccc4)c3)ncn2)cc1", "pIC50": 5.89}
{"MOLECULE": "CC(C)Cn1cc(-c2cc(Nc3ccc(OC(F)(F)F)cc3)ncn2)cn1", "pIC50": 5.81}
{"MOLECULE": "O=Cc1cc(-c2cc(Nc3ccc(OC(F)(F)F)cc3)ncn2)ccc1F", "pIC50": 5.23}
{"MOLECULE": "O=S(=O)(c1ccc(-c2cc(Nc3ccc(OC(F)(F)F)cc3)ncn2)cc1)N1CCOCC1", "pIC50": 5.58}
{"MOLECULE": "O=C(CCn1ccc2c(Nc3ccc(OC(F)(F)F)cc3)ncnc21)NCCN1CCOCC1", "pIC50": 5.50}

Next up:
Q: Find the measured pIC50 of O=C(c1ccoc1)N1CCN(C(=O)c2ccc3c(Nc4ccc(OC(F)(F)F)cc4)ncnc3c2)CC1 and report it.
Ans: 5.41
